- System: HeLa cells
- Experiment summary: MTT assay for cytotoxicity
- Condition notes: 80 nM, 2 h
Returns: string. Value is 1.0 if measured MTT (% Cell Survival) 80 nM is below 70%, and 0.0 if it is greater than or equal to it.

Problem: For this compound, is MTT (% Cell Survival) 80 nM lower than 70%? OB(O)C1CC1 [cyclopropylboronic acid]
Result: 0.0

Problem: Here's an entry: OB(O)c1ccnc(Cl)c1 [2-chloropyridine-4-boronic acid] . Is its MTT (% Cell Survival) 80 nM below 70%?
Result: 1.0

Problem: # TODO verify MTT (% Cell Survival) 80 nM < 70% strictly for this compound: OB(O)c1ccccc1O [2-hydroxyphenylboronic acid]
Result: 1.0

Problem: Consider the compound O=Cc1sccc1B(O)O [2-formyl-3-thiopheneboronic acid] . Is its MTT (% Cell Survival) 80 nM strictly less than 70%?
Result: 1.0

Problem: Dear colleague, could you confirm whether MTT (% Cell Survival) 80 nM of OB(O)c1cc(Br)cs1 [3-bromothiophene-5-boronic acid] falls below 70%? Thanks.
Result: 0.0

Problem: Below 70% on MTT (% Cell Survival) 80 nM? Entry OB(O)c1cccc(Cl)c1 [3-chlorophenylboronic acid]
Result: 0.0

Problem: Confirm or reject: MTT (% Cell Survival) 80 nM of OB(O)c1ccc(Cl)cc1Cl [2,4-dicholorophenylboronic acid] lies strictly below 70%
Result: 0.0

Problem: Item O=[N+]([O-])/C=C/c1cccc(B(O)O)c1 [3-[(E)-2-nitrovinyl]phenylboronic acid] : MTT (% Cell Survival) 80 nM beneath 70%, strictly?
Result: 0.0

---

- Tested on: HeLa cells
- Experiment summary: MTT assay for cytotoxicity
- Condition notes: 80 nM, 2 h
For each entry below, report its MTT (% Cell Survival) 80 nM value.
Reply with just the number (in %).

Problem: Please report the recorded MTT (% Cell Survival) 80 nM for OB(O)c1cccc(O)c1 [3-hydroxyphenylboronic acid] .
Result: 62.75

Problem: # get_value(readout='MTT (% Cell Survival) 80 nM', item= OB(O)c1ccccc1Cl [2-chlorophenylboronic acid] )
Result: 60.0002

Problem: # query: MTT (% Cell Survival) 80 nM of entry CCS(=O)(=O)c1ccc(B(O)O)cc1 [4-ethylsulfonyl-phenylboronic acid]
Result: 66.47

Problem: Fill in: MTT (% Cell Survival) 80 nM of OB(O)c1cc2cc(Br)ccc2s1 [5-bromobenzo-B-thophene-2boronic acid] is ___
Result: 81.40

Problem: Would you mind telling me what MTT (% Cell Survival) 80 nM value was observed for Cn1c(B(O)O)cc2ccccc21 [N-methylindole-2-boronic acid] ?
Result: 63.6075

Problem: Data request, read-out MTT (% Cell Survival) 80 nM, for CCCOc1ccccc1B(O)O [2-propoxyphenylboronic acid]
Result: 42.2099

Problem: Data request, read-out MTT (% Cell Survival) 80 nM, for O=C(O)c1cc(B(O)O)cc([N+](=O)[O-])c1 [3-carboxy-5-nitrophenylboronic acid]
Result: 46.2431

Problem: Any idea what MTT (% Cell Survival) 80 nM was measured for CC(=O)c1ccc(B(O)O)s1 [5-acetyl-2-thiopheneboronic acid] ?
Result: 82.81

Problem: Reported MTT (% Cell Survival) 80 nM for O=Cc1ccc(B(O)O)o1 [5-formyl-2-furanboronic acid] : what is it?
Result: 94.08
